src = ChEMBL document CHEMBL3880422

# assay.system: Caspase-3 (Homo sapiens) (UniProt P42574)
# Sequence (whole entry): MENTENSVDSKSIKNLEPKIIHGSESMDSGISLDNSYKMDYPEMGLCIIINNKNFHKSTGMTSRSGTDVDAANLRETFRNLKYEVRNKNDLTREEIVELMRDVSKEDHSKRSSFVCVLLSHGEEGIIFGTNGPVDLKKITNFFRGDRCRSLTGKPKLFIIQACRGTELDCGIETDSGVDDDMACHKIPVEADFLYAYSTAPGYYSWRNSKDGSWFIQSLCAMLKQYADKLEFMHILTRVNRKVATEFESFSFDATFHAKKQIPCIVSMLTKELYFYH
# assay.protocol: Inhibition of recombinant CPP32 (unknown origin) assessed as ratio of irreversible rate constant K3 to dissociation constant of the reversible binding step Ki pre-incubated for 60 mins with Acetyl-Tyr-Val-Ala-Asp-amino-4-methylcoumarin substrate followed by enzyme addition by fluorescence based assay
measure.name: log10 of Ratio (log10 of the value in M⁻¹ s⁻¹)
Quick note: numbers are log10 of Ratio, with M⁻¹ s⁻¹ as the unit.

Example results:
C[C@H](NC(=O)C(=O)Nc1ccccc1-c1ccccc1)C(=O)N[C@@H](CC(=O)O)C(=O)COc1ccccc1F | 4.75
C[C@H](NC(=O)C(=O)Nc1cc(C(F)(F)F)ccc1N1CCOCC1)C(=O)N[C@@H](CC(=O)O)C(=O)COP(=O)(c1ccccc1)c1ccccc1 | 5.00
C[C@H](NC(=O)C(=O)Nc1cccc2c1CCCC2)C(=O)N[C@@H](CC(=O)O)C(=O)COc1c(F)c(F)cc(F)c1F | 5.07

Inquiry: Look up and report measured log10 of Ratio for this entry: CCCOc1ccc(OCC(=O)[C@H](CC(=O)O)NC(=O)[C@@H](NC(=O)C(=O)Nc2cccc3ccccc23)C(C)C)cc1
Reply text: 5.22

Inquiry: Look up and report measured log10 of Ratio for this entry: CC(C)[C@H](NC(=O)C(=O)Nc1c(F)cccc1F)C(=O)N[C@@H](CC(=O)O)C(=O)COc1c(F)c(F)cc(F)c1F
Reply text: 4.80

Inquiry: Look up and report measured log10 of Ratio for this entry: C[C@H](NC(=O)C(=O)NCc1ccccc1)C(=O)N[C@@H](CC(=O)O)C(=O)COc1c(F)c(F)cc(F)c1F
Reply text: 4.73

Inquiry: Look up and report measured log10 of Ratio for this entry: C[C@H](NC(=O)C(=O)Nc1ccccc1-c1ccccc1)C(=O)N[C@@H](CC(=O)O)C(=O)COC(=O)c1c(Cl)cccc1Cl
Reply text: 5.59
